assay: yeast display, Sf9 membrane polyspecificity reagent, FACS + sequencing; frameworks hold sequencing errors

- Residue String: "QVQLVESGGGLVQAGGSLRLSCAASGFIFTPYTMGWYSQAPGKERELVAAITDGSSTYYADSVKGRFTISRDNAKNTVYLQMNSLKPEDTALYYCNADGKPPYNSWLYDYWGQGTQVTVTS"
  polyreactivity (PSR sort gate): "low polyreactivity"
- Residue String: "QVQLVESGGGLVQAGGSLRLSCAASGRTFGKNAMGWYRQAPGKERELVAAIRYRTGSTYYADSVKGRFTISRDNAKNTVYLQMNSLKPEDTAVYYCAKVGSSPLYWGQGTQVTVSS"
  polyreactivity (PSR sort gate): "high polyreactivity"
- Residue String: "QVQLVESGGGLVQAGGSLRLSCAASGRNFGAYTMGWYRQAPGKESELVAAISSSGGRTYYADSVKGRYTISRDNAKNTVYLQMNSLKPEDTAVYYCAASYSGRKDRYPHYDYWGQGTQVTVSS"
  polyreactivity (PSR sort gate): "low polyreactivity"
- Residue String: "QVQLVESGGGLVQAGGSIRLSCAASGRIFKAYAMGWYRQAPGKERELVAAITRGGRTKYADSVKGRFTLSRDNAKNTVYLQMNSLKPEYTAVYYCNPPRGVLYDYWGHGTQVTVSS"
  polyreactivity (PSR sort gate): "high polyreactivity"
- Residue String: "QVQLVESGGGLVQAGGSLRLSCAASGYTFRSYAMGWYRQAPGKEREFVASISSSGGSTYYADSVKGRFTISRDNAKNTVYLQMNSLKPEDTAVYYCAASVGSYPYDEYDYWGQGTQVTVSS"
  polyreactivity (PSR sort gate): "low polyreactivity"

---

assay: yeast display, Sf9 membrane polyspecificity reagent, FACS + sequencing; frameworks hold sequencing errors

- Residue String: "QVQLVESGGGLVQAGGSLSLSCAASGRTFGAYAMGWYRQAPGKERELVATITVSGGSTYYADSVKGRFTISRDNAKNTVYLQMNSLKREDTAVYYCAAEWYPYPWGYGYWGQGTQVTVSS"
  polyreactivity (PSR sort gate): "low polyreactivity"
- Residue String: "QVQLVESGGGLVQAGGSLRLSCAASGSTFKRYAMGWYRQAPGKERELVAAINRSGTSTYADSVKGRFTISRDNAKNTVYLQMNSLKPEDSAVYYCARYYAYLRVKYDYWGQGTQVTVSS"
  polyreactivity (PSR sort gate): "high polyreactivity"
- Residue String: "QVQLVESGGGLVQAGGSLRLSCAASGFIFVIYAMGWYRQAPGKERELVARISFRSGRTYYADSVKGRFTISRDNAKNTVYLQMNSLKPEDTAVYYCNAVLYGQYKYDYWGQGTQVTVSS"
  polyreactivity (PSR sort gate): "high polyreactivity"
- Residue String: "QVQLVESGGGLVQAGGSLRLSCAASLIFANYAMGWYRQAPGKERELVAAISSVGRTYYADSVKGRFTISRDNAKNTVYLQMNSLKPEDTAVYYCAAESWFKYDYWGQGTQVTVSS"
  polyreactivity (PSR sort gate): "low polyreactivity"
- Residue String: "QVQLVESGGGLVQAGGSLRLSCAASGITFNSYAMGWYRQAPGKERELVAAISGSGSSTYYADSVKGRFTISRDNAKNTVYLQMNSLKPEDTAVYYCAATVYSSWTYYTHEYWGQGTQVTVSS"
  polyreactivity (PSR sort gate): "low polyreactivity"

---

experiment: yeast display, Sf9 membrane polyspecificity reagent, FACS + sequencing; frameworks hold sequencing errors
Observable: polyreactivity (PSR sort gate)

- Residue String: "QVHLVESGGGLVQAGGILRLSCAASGRTFLWYAMGWSRQAPGKERELVAAISKRGGSTYYADSVKGRFTISRDKAKNTVYLQMNSLKPVDTAVYYCAAEKRYSSYDYWGQGTQVSVSS"
  Measured Result: "high polyreactivity"
- Residue String: "QVQLVESGGGLVQAGGSLRLSCAASGFTFSYNSMGRYRQATAKERELVARISRTGGSTNYADSVKGRFTISRDNAKNTVYLQMNSLKPEDTAVYYCATGYRYTYGSWGQGTQVTVSS"
  Measured Result: "high polyreactivity"
- Residue String: "QVQLVESGRGLVQAGGSLSLSCAASGITFGNYAMGWYRQAPGKERELVAAITGSGGRTYYADSVKVRFTISRDNAKNTVYLQMNSLKPEDTAVYDCAAKQYTRFGYYYWGQGTQLTVSS"
  Measured Result: "high polyreactivity"

---

test: yeast display, Sf9 membrane polyspecificity reagent, FACS + sequencing; frameworks hold sequencing errors

- Residue String: "QVQLVESGRCLVQAGGSLRLSCAASGITFDGNAMGWYRQEPGKERELVAGITRIGGGTYYADSVKGRFTISRDNAKNTVYLQMNSLKPEDTAVYYSAKDALVPNFTKDIFEYDYWGQVTQVTVSS"
  polyreactivity (PSR sort gate): "low polyreactivity"
- Residue String: "QVQLVESGGGLVQAGGSLRLSCAASGSIFLGNTMGWYRQAPGKERELVAAITIGGSTHYADSVKGRFTISRDNAKNTVYLQMNSLKPDDTAVYYCAKEGWPFGIDFDYWGQGTQVTVSS"
  polyreactivity (PSR sort gate): "low polyreactivity"

---

experiment: yeast display, Sf9 membrane polyspecificity reagent, FACS + sequencing; frameworks hold sequencing errors

- Residue String: "QVQLVESGGGLVQAGGSLRLSCAASGRTFIRYAMGWYRQAPGKERELVAAISSRGGRTHYADSVKGRFTISRDNAKNTVYLQMNSLKPEDTAVYYCAADLTYVTVPGASYDYWGQGTQVTVSS"
  polyreactivity (PSR sort gate): "low polyreactivity"
- Residue String: "QVQLVESGGGLVQAGGSLRLSCAASGRIFYKYTMGWYRQAPGKERELVAAITDSDDSTYYADSVKGRFTISRDNAKITVYLQMNSLKPEDTAVYYCAASGPVTESDMDYWGQGTQVTVSS"
  polyreactivity (PSR sort gate): "low polyreactivity"
- Residue String: "QVQLGESGGGLVQAGGSLRLSCAASGRIFYKNTMGWYRQAPGKERELVAAISWRGGSTYYADSVKGRFTISRDNAKNTVYLQMNSLKPEDTAVYYCNADIWAYKYDYWGQGTQVTVSS"
  polyreactivity (PSR sort gate): "high polyreactivity"
- Residue String: "QVQLVESGGGLVQAGGSLRLSCAASGLTFTSYAMGWYRQAPGKERELVAAIDWSGGRTYYADSVKGRFTISRDNAKNTVYLQMNSLKPEDTAVYYCAAYSRNRSLRFNYWGQGTQVTVSS"
  polyreactivity (PSR sort gate): "high polyreactivity"
- Residue String: "QVQLVESGGGLVQAGGSLRLSCAASGITFYTNAMGWYRQAPGKERELVAGISSSSGSTYYADSVKGRFTISRDNAKNTVYLQMNSLKPEDTAVYYCAADQDSTASDYKEYGYWGQGTQVTVSS"
  polyreactivity (PSR sort gate): "low polyreactivity"

---

experiment: yeast display, Sf9 membrane polyspecificity reagent, FACS + sequencing; frameworks hold sequencing errors

- Residue String: "QVQLVESGGGLVQAGGSLRLSCAASGRTFVSYAMGWYRQAPGKERELVAGITWRGGSTYYADSVKGRFTISRDNAKNTVYLQMNSLTPEDTAVYYCAKRSVLYGNRIFDYWGQGTQVTVSS"
  polyreactivity (PSR sort gate): "high polyreactivity"
- Residue String: "QVQLVESGGGLVQAGGSLRLSCAASGFIFYYNAMGWYRQAPGKERELVAAISSRGGSTYYADSVKGRFTISRDNAKNTVYLQMNSLKPEDTAVYYCNAKRYFRNHFRTGGMYYWGQGTQVTVSS"
  polyreactivity (PSR sort gate): "high polyreactivity"
- Residue String: "QVQLVESGVGLVQAGGSLRLSCAASGGTFVTYAMGWFSQAPGKERELVAAISATDGRTYNADSVKGRFTISRDNAKNTVYLQMNSLKPADTAVYYCAAVGPYTQSRGKYSNLFYWGQGTQVTVSS"
  polyreactivity (PSR sort gate): "high polyreactivity"

---

test: yeast display, Sf9 membrane polyspecificity reagent, FACS + sequencing; frameworks hold sequencing errors
Observable: polyreactivity (PSR sort gate)

- Residue String: "QDQHVESGGGLVQAGGSLRLSCAASGGNYAGYAMGWYRQAAGKARELVAAISWRGTSTYYADSVKGRFTISRDNAKNTVYLELNSLKPEDTAVYYCAAEAASWWGYGYWGQGTQVTVSS"
  Observable: "polyreactivity (PSR sort gate)"
  Measured Result: "high polyreactivity"
- Residue String: "QVQLVESGGGLVQAGGSLRLSCAASGFIFGFYAMGWYRQAPGKERELVAAITSDGGTYYADSVKGRFTISRDNAKNTVYLQMNSLKPEDTAVYYCAADVLYEVFSWYVGYDYWGQGTQVTVSS"
  Observable: "polyreactivity (PSR sort gate)"
  Measured Result: "low polyreactivity"
- Residue String: "QVQLVESGGGLVQAGGSLRLSCAASGFIYNAMGWYRQAPGKERELVAAISYSGGSTYYADSVKGRFTISRDNAKNTVYLQMNILKPEDTAVYYCAAGYYPFNYWGQGTQVTVSS"
  Observable: "polyreactivity (PSR sort gate)"
  Measured Result: "high polyreactivity"
- Residue String: "QVQLVESGGGLVQAGGSLRLSCAASGRNFSSYALGWYRQAPGKERELVAAIRYDAGSTYYADSVKGRFTISRDNAKNTVYLQMNSLKPEDTAVYYCAAGIYSSRHSPYGYWGQGTQVTVSS"
  Observable: "polyreactivity (PSR sort gate)"
  Measured Result: "high polyreactivity"
- Residue String: "QVQLVESGGGLVQAGGSLRLSCAPSGRIFYSYAMGWYRQAPGKVRELVAAIRSRGGSTRYADSVKGRFTISRDNAKNNVYLQMNSLKPEDTAVYYCAATGYQSRGSSDYWGQGTQVSVSS"
  Observable: "polyreactivity (PSR sort gate)"
  Measured Result: "high polyreactivity"
- Residue String: "QVQLVESGGGLVQAGGSLRLSCAASGFIFRNYALGWYRQAPGTERELVAAITGRGTSTYYADSVKGRFTISRDNAKNTVYLQMNSLKPEDTAVYYCAARSLALVYRKYDYWGQGTQVTVSS"
  Observable: "polyreactivity (PSR sort gate)"
  Measured Result: "high polyreactivity"
- Residue String: "QVQLVESGGGLVQAGGSLRLSCAASGRTFGKYAMGWYRQAPGKERELVAAITNSGGSTYYADSVKGRFTISRDNAKNTVYLQMNSLKPEDTAVYYCNRLGYRGTSKLNHMGYWGQGTQVTVSS"
  Observable: "polyreactivity (PSR sort gate)"
  Measured Result: "high polyreactivity"
- Residue String: "QVQHVESGGGLVQAGGSLRLSCAASGSYLRYYAMGWYRQAPGKERELVAAISRSGTNTYYADSVKGRFTFSPDNAKNSVYLQMNSVKPEVTAVYYCAARGYYRDYDSWGQGTQVTVSS"
  Observable: "polyreactivity (PSR sort gate)"
  Measured Result: "high polyreactivity"
- Residue String: "QVQLVESGGGLVQAGGSLRLSCAASGSIFVTNAMGWYRQAPGKERELVAAISVSGGSTYYADSEKGRITISRDNAKNTVYLQMNRLKAEDTAGYYCNARQVFTTAGREMDYWGQGTQVTVSS"
  Observable: "polyreactivity (PSR sort gate)"
  Measured Result: "low polyreactivity"
- Residue String: "QVQLVESGGGLVQAGGSLRLSCAASGSIIATNAMGWYRQAPGKERELVAAISRSAGRTYYADSVKGRFTISRDNAKNTVYLQMNRLKPDDTAVYYCNAVFPGVTNQMDYWGQGTQVTVSS"
  Observable: "polyreactivity (PSR sort gate)"
  Measured Result: "high polyreactivity"
- Residue String: "QVQHVESGGGLVQAGGSLRLICAASGRIFLRNAMGWYRQAPGKERELVATITSRGGSTYYADAVKGRFTISRDNAKNTVYLQMNRLKPEDTAVYNCAAVPRRYRGFGYVYGGFYYWGQGTQVTVSS"
  Observable: "polyreactivity (PSR sort gate)"
  Measured Result: "low polyreactivity"
- Residue String: "QVQLVESGGGLVQAGGSLRLSCAASGISFSANAMGWYRQAPGKEREWVAAISASGGSTRYADSVKGRFTISRDNAKNTVYLQMNSLKPEDTAVYYCATRRTSRSKWRHYWGQGTQVTVSS"
  Observable: "polyreactivity (PSR sort gate)"
  Measured Result: "high polyreactivity"
- Residue String: "QVQLVESGGGLVQAGGSLRLSCAASGRIFSYNAMGWYRQAPGKERELDAAISWSTGSTFYADSVKGRFTISRDNAKNTVYLQMNSLKPEDTAVYYCAREYYYRRGFFLRGYWGQGTQVTVSS"
  Observable: "polyreactivity (PSR sort gate)"
  Measured Result: "high polyreactivity"
- Residue String: "QVQLVESGGGLDQAGGRLRLSCAASGRTYSVKSMGWYRQAPGKERELVAAITSGGSTYYADSVKGRFTISRDNAKNTVYLQMNSLKPEDTAVYYCNAVGRLRRSRLRMDYWGQGTQVTVSS"
  Observable: "polyreactivity (PSR sort gate)"
  Measured Result: "high polyreactivity"
- Residue String: "QVQLVESGGGLVQAGGSLRLSCAASGRTLIAYAMGWYRQAHGKEREFVAAIRADDGRTYYADSVKGRFTISRDNAKNTVYFQMNSLKPEDTAVYYCDTKADKRYRFGYWGQGTQVTVSS"
  Observable: "polyreactivity (PSR sort gate)"
  Measured Result: "high polyreactivity"
- Residue String: "QVQLVESGGGLVQAGGSLRLSCAASGRIFGVYAMGWYRQSPGKERELVAPISRSGGRTYYADSVKGRFTISRDNAKNSDYLQMNSLKPEDTAVYYCNVVRWYYHPPLTGSRFDYWGQGTQVTVSS"
  Observable: "polyreactivity (PSR sort gate)"
  Measured Result: "high polyreactivity"
- Residue String: "QVQLVESGGGLVQAGGSLRLSCAASGSTSGKNAMGWYRQAPGKERELVAVITYSGSRTYYADSVKGRFTISRDNAKNTVYLQMNSLKPEDTAVYYCAAVGGGVSFRGNYWGQGTQVTVSS"
  Observable: "polyreactivity (PSR sort gate)"
  Measured Result: "high polyreactivity"
- Residue String: "QVQLVESGGGLVQAGGSLRLSCADSGRTFYGNARGWYRQAPGKERELVAAISISGGSTYYADSVKGRFTISRDNAKNTVYLQMNSLKPEDTAVYYCNAQEYYYYPYVYDSDYWGQGTQVTVSS"
  Observable: "polyreactivity (PSR sort gate)"
  Measured Result: "low polyreactivity"
- Residue String: "QVQLVESGGGLVQAGGSLRLSCAASGFTFYGYAMGWYRQAPGKERELVAAISSSGGRTYYADSVKGRFTISRDNAKNTVYLQMNSLKPEDTAVYYCAGDYTSRDYYYWGQGTQVTVSS"
  Observable: "polyreactivity (PSR sort gate)"
  Measured Result: "high polyreactivity"
- Residue String: "QVQLVESGGGLVQAGGSLRLSSAASGLIFRHNAMGWYRQAPGKERELVAAISSTGGRTYYADSVKGRFTISRDNAKNTVYLQMNSLKPEDTAVYYCAARHTKALWSPQNGYYWGQGTQVTVSS"
  Observable: "polyreactivity (PSR sort gate)"
  Measured Result: "high polyreactivity"
- Residue String: "QVQLVESGGGLVQAGGSLRLSCAASGSTSCSNAMGWSRQAPGKERELVAAITTGASTYYADSVKGRFTISRDNAKNTVYLQMNSLKPEDTAVYYCAADPWVLWSYYYWGQGTQVTVSS"
  Observable: "polyreactivity (PSR sort gate)"
  Measured Result: "low polyreactivity"

Entry source: the nanobody polyreactivity screen of Harvey et al. (2022)
